Tested on: MDA-MB-231 breast
Test: NCI tumour cell line growth inhibition, 48 h
The reader will find reported TGI values listed item by item below.

structure_smiles=COC(=O)/C=C\C(C#N)(C#N)N=Cc1ccc(Br)s1 value="4.51 µM"
structure_smiles=C=CCNS(=O)(=O)c1ncnc2nc[nH]c12 value="> 100 µM"
structure_smiles=c1ccc(C(=NNc2cnc3ccccc3n2)c2ccccn2)cc1 value="26.9 µM"
structure_smiles=C1=NCCNCCNCCN=Cc2ccccc2OCc2cccc(n2)COc2ccccc21 value="> 100 µM"

Lookup: Please give the measured TGI for this compound: O=c1c2ccccc2c2ccccc2c(=O)n1Cc1ccc2c(c1)OCO2
Found: > 100 µM

Lookup: Entry CC(=N\N=C\c1ccccn1)/C(C)=N/N=C(C)/C(C)=N/N=C/c1ccccn1 please
Found: > 100 µM

###

Test system: UACC-62 melanoma
Test: NCI tumour cell line growth inhibition, 48 h
The reader will find reported TGI values listed item by item below.

Use the examples below as a reference point.
compound=COc1cc(S(=O)(=O)Nc2nc(-c3ccc(N4C(=O)/C(=C/c5ccccc5[N+](=O)[O-])N=C4c4ccccc4)cc3)cs2)ccc1Cl measured_on="UACC-62 melanoma" value="92.8 µM"
compound="COC(=O)C1C2CC3C1C3C2C(=O)OC (configuration not stated)" measured_on="UACC-62 melanoma" value="> 100 µM"
compound="C=C1C(=O)OC2CC1CCC1(C)OC1CCC(C)=CCCC2(C)O (configuration not stated)" measured_on="UACC-62 melanoma" value="10 µM"
compound=COc1cccc2c1c(C1=C(c3cn(C)c4ccccc34)C(=O)NC1=O)cn2C measured_on="UACC-62 melanoma" value="> 25 µM"
compound=NC1=NCCN1CC(=O)O measured_on="UACC-62 melanoma" value="> 10000 µM"
compound=CC(=O)OCCOc1cc2c([nH]c3ccccc32)c(C)c2cccc1-2 measured_on="UACC-62 melanoma" value="6.05 µM"
compound=C1=NCCNCCNCCN=Cc2ccccc2OCc2cccc(n2)COc2ccccc21 measured_on="UACC-62 melanoma" value="> 100 µM"
compound="O=C(CCC(C(=O)c1ccccc1)c1ccccc1)c1ccccc1 (configuration not stated)" measured_on="UACC-62 melanoma" value="> 100 µM"
compound=CN(CC(=O)O)c1ncc2c(n1)-c1ccccc1OC2 measured_on="UACC-62 melanoma" value="> 100 µM"
compound=C/C(=C(\c1ccc(OCCN2CCCCCC2)cc1)c1ccc(OC(=O)Cc2ccccc2)cc1)c1ccc(Cl)cc1 measured_on="UACC-62 melanoma" value="5.2 µM"

Lookup: Please give the measured TGI for this compound: Cc1ncsc1-c1ccc(CNC(=O)[C@@H]2C[C@@H](O)CN2C(=O)[C@@H](NC(=O)C2(C#N)CC2)C(C)(C)C)cc1
Found: > 100 µM

Lookup: Entry O=C(NC1C2CC3CC(C2)CC1C3)c1cc(/C=C/c2ccccc2)[nH]c(=S)n1 (configuration not stated) please
Found: > 100 µM

Lookup: Entry NS(=O)(=O)c1ccc(Nc2c3ccccc3nc3c(C(=O)NCCO)cccc23)cc1 please
Found: 0.303 µM

Lookup: Entry CN1Cc2cc3c(cc2-c2ccccc21)OCO3 please
Found: > 100 µM

Lookup: Entry C=C(CN1CCN(c2cccc(C(F)(F)F)n2)CC1)c1ccc(C(=S)Nc2ccccc2N)cc1 please
Found: 6.89 µM

Lookup: Entry CCOC(=O)c1ccc(NC(=O)SCCC(=O)O)cc1 please
Found: > 100 µM

Lookup: Entry COc1cc(Nc2nc3ccc(C(F)(F)F)cc3nc2C(=O)O)cc(OC)c1OC please
Found: 38.2 µM
